# System: Chikungunya virus
# experiment: Antiviral activity against CHIKV infected in […] Huh-7 cells
# Type: functional, organism-based
attribute-measured: pEC50
pEC50 here is simply -log10 of the concentration when that concentration is written in mol/L.

[in] Answer with the recorded pEC50 for the molecule listed here: CCCCCc1c2c(cc(O)c1C(=O)O)OC(=O)c1c(cc(OC)cc1C(=O)CCCC)O2
[out] 5.28

---

# experiment: Selectivity index, ratio of CC50 for human Huh-7 cells to EC50 for CHIKV S27 infected in Huh-7 cells
# Format: toxicity, cell-based
# experimental-setup: read-out: Ratio CC50/EC50
attribute-measured: selectivity ratio
Form rule: numeric answer, no unit written next to it.

[in] Please supply the value of reported selectivity ratio for the item Cc1nc2c(=O)n(C)c(=O)nc-2n(C)n1
[out] 17

---

# experiment: Metabolic stability in human liver microsomes assessed as hepatic clearance preincubated for 5 mins followed by NADPH addition and measured after 20 mins by LCMS analysis
# Assay type: ADME, Microsome
# experimental-setup: time 25 min
attribute-measured: CLhep predicted

[in] Fill in CLhep predicted for record Cc1nc2c(=O)n(C)c(=O)nc-2n(C)n1
[out] < 6.1 mL/min/kg

---

# Tested on: Chikungunya virus
# experiment: Antiviral activity against CHIKV infected in hamster BHK-21 cells assessed as inhibition of viral replication measured after 48 hrs by gaussia luciferase assay
# Assay type: functional, organism-based
# experimental-setup: BHK-21, 48 h
EC50 listing for selected compounds.
Entry rule: numbers only, all in µM.

Worked examples, 2 compounds total:
• Cc1nc2c(=O)n(C)c(=O)nc-2n(C)n1 = 0.2
• CC(C)=CCC/C(C)=C/Cc1c(O)ccc(C(=O)/C=C/c2ccc(O)cc2)c1O [XANTHOANGELOL] = 7.1

Lab note: next compound to report on.
[in] Output reported EC50 of the compound CCN(CC)CCCC(C)Nc1c2ccc(Cl)cc2nc2ccc(OC)cc12 (stereo not drawn) [QUINACRINE] on Chikungunya virus.
[out] 12

---

# experiment: Inhibition of N-terminal His-tagged human PDI expressed in Escherichia coli BL21 (DE3) incubated for 1 hr
attribute-measured: IC50

[in] Give recorded IC50. Cc1nc2c(=O)n(C)c(=O)nc-2n(C)n1
[out] 170 nM

---

# experiment: Cytotoxicity against hamster BHK-21 cells assessed as reduction in cell viability measured after 48 hrs by MTT assay
# Assay type: toxicity, cell-based, Mesocricetus auratus
# experimental-setup: BHK-21 cells
// values below are reported CC50 at 48 h
# number then unit; no other words

- CCN(CC)CCCC(C)Nc1c2ccc(Cl)cc2nc2ccc(OC)cc12 (configuration not stated): 19.8 µM

[in] Give CC50 at 48 h for CC(C)=CCC/C(C)=C/Cc1c(O)ccc(C(=O)/C=C/c2ccc(O)cc2)c1O
[out] 11.8 µM

---

# experiment: Selectivity index, ratio of CC50 for human Huh-7 cells to EC50 for CHIKV S27 infected in Huh-7 cells assessed as reduction in cytopathic effect by neutral red staining based analysis
# Assay type: toxicity, cell-based
# experimental-setup: read-out: Ratio CC50/EC50
attribute-measured: selectivity ratio

[in] Determine from records and report selectivity ratio for Cc1nc2c(=O)n(C)c(=O)nc-2n(C)n1
[out] > 11
